Target: Androgen Receptor (AR) (Homo sapiens)
Construct: endogenous in cells; host or cells: VCaP
Experiment: AR immunofluorescence staining, high content imager, VCaP cells
Assay type: cell-based
Settings: maximal AR degradation
PARAMETER: Dmax

Please review the following examples before continuing.
# COMPOUND, Dmax
data = [
    ("COc1cc(O[C@H]2C(C)(C)[C@H](NC(=O)c3ccc(N4CCC(CN5CCN(c6ccc(F)c(C(=O)N[C@H]7CCC(=O)NC7=O)c6)CC5)CC4)cc3)C2(C)C)ccc1C#N [Compound 69]", "≥ 70%"),
    ("COCCN(C[C@@H]1CN(c2ccc(C(=O)N[C@H]3C(C)(C)[C@H](Oc4cc(C)c(C#N)c(C)c4)C3(C)C)cc2)CCO1)[C@H]1C[C@@H](Oc2ccc(C(=O)N[C@H]3CCC(=O)NC3=O)c(F)c2)C1 [Compound 45]", "≥ 70%"),
]

Kindly consider the entry below.
Record COCCN(C[C@H]1CN(c2ccc(C(=O)N[C@H]3C(C)(C)[C@H](Oc4cc(C)c(C#N)c(C)c4)C3(C)C)cc2)CCO1)[C@H]1C[C@H](Oc2ccc(C(=O)N[C@H]3CCC(=O)NC3=O)c(F)c2)C1 [Compound 67] : what is its Dmax with Androgen Receptor (AR) (Homo sapiens)? ≥ 70%

----------
Biological target: Androgen Receptor (AR) (Homo sapiens)
Construct: endogenous in cells; host or cells: VCaP
Assay: AR immunofluorescence staining, high content imager, VCaP cells
Assay type: cell-based
Conditions: maximal AR degradation
Below is a list of entries, each paired with its recorded Dmax value.

Please review the following examples before continuing.
# COMPOUND, MEASURED ON, Dmax
data = [
    ("COc1cc(N2CCN(C[C@H]3CN(c4ccc(C(=O)N[C@H]5C(C)(C)[C@H](Oc6cc(C)c(C#N)c(C)c6)C5(C)C)cc4)CCO3)CC2)ccc1C(=O)NC1CCC(=O)NC1=O (some centres unmarked) [Compound 59]", "Androgen Receptor (AR) (Homo sapiens)", "≥ 70%"),
    ("CN(C(=O)c1ccc(N2CCN(CC3CCN(c4ccc(C(=O)N[C@H]5CC[C@H](Oc6ccc(C#N)c(Cl)c6)CC5)nn4)CC3)CC2)cc1F)C1CCC(=O)NC1=O (some centres unmarked) [Compound 31]", "Androgen Receptor (AR) (Homo sapiens)", "50 to 70%"),
]

Dear colleague, I am looking for the recorded Dmax of the following compound: N#Cc1ccc(O[C@H]2CC[C@H](NC(=O)c3ccc(N4CCC(CN5CCN(c6ccc(C(=O)NC7CCC(=O)NC7=O)c(F)c6)CC5)CC4)nn3)CC2)cc1Cl (some centres unmarked) [Compound 26] ≥ 70%

Another compound to check: CC1(C)[C@H](NC(=O)c2ccc(N3CCC(CN4CCN(c5ccc(C(=O)NC6CCC(=O)NC6=O)c(F)c5)CC4)CC3)cc2)C(C)(C)[C@H]1Oc1ccc(C#N)c(Cl)c1 (some centres unmarked) [Compound 19] ≥ 70%

Another compound to check: COCCN(C[C@H]1CN(c2ccc(C(=O)N[C@H]3C(C)(C)[C@@H](Oc4ccc(C#N)c(OC)c4)C3(C)C)cc2)CCO1)[C@H]1C[C@H](Oc2ccc(C(=O)N[C@@H]3CCC(=O)NC3=O)c(F)c2)C1 [Compound 50] ≥ 70%

----------
Target: Androgen Receptor (AR) (Homo sapiens, UniProt P10275)
Construct: endogenous in cells; host or cells: VCaP
Sequence (P10275 whole entry): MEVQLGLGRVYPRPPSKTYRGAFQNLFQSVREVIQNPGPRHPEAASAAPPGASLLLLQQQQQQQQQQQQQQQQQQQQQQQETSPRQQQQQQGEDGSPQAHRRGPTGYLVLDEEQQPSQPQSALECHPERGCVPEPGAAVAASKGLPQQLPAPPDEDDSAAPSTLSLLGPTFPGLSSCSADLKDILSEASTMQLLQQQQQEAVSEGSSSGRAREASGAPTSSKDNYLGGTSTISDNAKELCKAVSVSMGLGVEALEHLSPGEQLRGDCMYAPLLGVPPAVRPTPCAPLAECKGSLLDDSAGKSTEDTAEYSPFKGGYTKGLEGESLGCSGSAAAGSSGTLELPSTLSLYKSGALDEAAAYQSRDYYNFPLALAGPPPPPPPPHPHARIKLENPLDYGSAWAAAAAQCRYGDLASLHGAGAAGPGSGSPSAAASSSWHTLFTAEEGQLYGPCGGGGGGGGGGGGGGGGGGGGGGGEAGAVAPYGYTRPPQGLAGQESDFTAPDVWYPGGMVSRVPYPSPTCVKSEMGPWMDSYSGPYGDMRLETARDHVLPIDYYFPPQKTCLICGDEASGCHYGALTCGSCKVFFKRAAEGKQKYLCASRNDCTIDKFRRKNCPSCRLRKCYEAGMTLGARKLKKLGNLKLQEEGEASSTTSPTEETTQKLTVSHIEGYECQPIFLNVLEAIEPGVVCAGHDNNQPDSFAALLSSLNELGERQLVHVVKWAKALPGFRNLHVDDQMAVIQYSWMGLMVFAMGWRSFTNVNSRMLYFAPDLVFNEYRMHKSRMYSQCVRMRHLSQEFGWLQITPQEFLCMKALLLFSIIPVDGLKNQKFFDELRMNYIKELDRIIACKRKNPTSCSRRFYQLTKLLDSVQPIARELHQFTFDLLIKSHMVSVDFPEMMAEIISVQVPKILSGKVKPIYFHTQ
Test: AR immunofluorescence staining, high content imager, VCaP cells
Assay type: cell-based
Conditions: maximal AR degradation
PARAMETER: Dmax

Please review the following examples before continuing.
# COMPOUND, MEASURED ON, Dmax
measured = [
    ("Cc1cc(O[C@H]2C(C)(C)[C@H](NC(=O)c3ccc(N4CCC(CN5CCOCCCCOc6cc(C(=O)NC7CCC(=O)NC7=O)ccc6O[C@H]6C[C@H]5C6)CC4)cc3)C2(C)C)cc(C)c1C#N (stereo partly shown)", "Androgen Receptor (AR) (Homo sapiens, UniProt P10275)", "50 to 70%"),
    ("COc1cc(O[C@H]2C(C)(C)[C@H](NC(=O)c3ccc(N4CCC(CN5CCN(c6cnc(C(=O)N[C@H]7CCC(=O)NC7=O)cn6)CC5)CC4)cc3)C2(C)C)ccc1C#N", "Androgen Receptor (AR) (Homo sapiens, UniProt P10275)", "≥ 70%"),
    ("Cc1cc(O[C@H]2C(C)(C)[C@H](NC(=O)c3ccc(N4CCO[C@@H](CN5CCN(c6ccc(C(=O)N[C@@H]7CCC(=O)NC7=O)c(F)c6)CC5)C4)cc3)C2(C)C)cc(C)c1C#N", "Androgen Receptor (AR) (Homo sapiens, UniProt P10275)", "< 50%"),
    ("COc1cc(O[C@H]2C[C@H](N3CCOC4(CCN(c5ccc(C(=O)N[C@H]6C(C)(C)[C@H](Oc7cc(C)c(C#N)c(C)c7)C6(C)C)cc5)CC4)C3)C2)ccc1C(=O)NC1CCC(=O)NC1=O (stereo partly shown)", "Androgen Receptor (AR) (Homo sapiens, UniProt P10275)", "≥ 70%"),
    ("Cc1cc(O[C@H]2C(C)(C)[C@H](NC(=O)c3ccc(N4CCC(CN5CCN(c6ccc(C(=O)NC7CCC(=O)NC7=O)c(F)c6)CC5)CC4)cc3)C2(C)C)cc(C)c1C#N (stereo partly shown)", "Androgen Receptor (AR) (Homo sapiens, UniProt P10275)", "≥ 70%"),
]

Dear colleague, I am looking for the recorded Dmax of the following compound: `Cc1cc(O[C@H]2C(C)(C)[C@H](NC(=O)c3ccc(N4CCC(CN5CCN(c6cnc(C(=O)N[C@H]7CCC(=O)NC7=O)cn6)CC5)CC4)cc3)C2(C)C)cc(C)c1C#N` ≥ 70%

Another compound to check: `Cc1cc(O[C@H]2C(C)(C)[C@H](NC(=O)c3ccc(N4CCO[C@H](CN5CCN(c6ccc(C(=O)N[C@H]7CCC(=O)NC7=O)c(F)c6)CC5)C4)cc3)C2(C)C)cc(C)c1C#N` ≥ 70%

Another compound to check: `Cc1cc(O[C@H]2C(C)(C)[C@H](NC(=O)c3ccc(N4CCC(O[C@H]5C[C@H](Oc6ccc(C(=O)N[C@H]7CCC(=O)NC7=O)c(F)c6)C5)CC4)cc3)C2(C)C)cc(C)c1C#N` < 50%

Another compound to check: N#Cc1ccc(O[C@H]2CC[C@H](NC(=O)c3ccc(N4CCC(CN5CCN(c6cccc(C(=O)NC7CCC(=O)NC7=O)c6)CC5)CC4)nn3)CC2)cc1Cl (stereo partly shown) < 50%

Another compound to check: CC1(C)[C@H](NC(=O)c2cnc(N3CCC(CN4CCN(c5ccc(C(=O)NC6CCC(=O)NC6=O)c(F)c5)CC4)CC3)cn2)C(C)(C)[C@H]1Oc1ccc(C#N)c(Cl)c1 (stereo partly shown) 50 to 70%
